The following molecules are shown together with reported CC50 at 72 h values.
Assay: Cytotoxicity against human HepG2(2.2.15) cells assessed as reduction in cell viability after 72 hrs by MTT assay
Assay type: cell-based

Example results:
Prompt line: Could you tell me which CC50 at 72 h is on file for O=C(N[C@H](CO)Cc1ccccc1)/C(NC(=O)c1ccccc1)=C(/Br)c1ccccc1Cl ?
Response line: 66.7 µM

Prompt line: Could you tell me which CC50 at 72 h is on file for O=C(N[C@H](CO)Cc1ccccc1)/C(=C\c1ccccc1Br)NC(=O)c1ccccc1 ?
Response line: > 100 µM

Prompt line: Could you tell me which CC50 at 72 h is on file for Cc1cccc(/C(Br)=C(/NC(=O)c2ccccc2)C(=O)N[C@H](CO)Cc2ccccc2)c1 ?
Response line: > 100 µM

Prompt line: Could you tell me which CC50 at 72 h is on file for N#Cc1ccc(/C(Br)=C(/NC(=O)c2ccccc2)C(=O)N[C@H](CO)Cc2ccccc2)cc1 ?
Response line: > 100 µM

Prompt line: Could you tell me which CC50 at 72 h is on file for O=C(N[C@H](CO)Cc1ccccc1)/C(NC(=O)c1ccccc1)=C(/Br)c1ccccc1 ?
Response line: > 100 µM

Others:
Prompt line: Could you tell me which CC50 at 72 h is on file for O=C(N[C@H](CO)Cc1ccccc1)/C(NC(=O)c1ccccc1)=C(/Br)c1ccc(O)cc1 ?
Response line: 34.3 to 39 µM

Prompt line: Could you tell me which CC50 at 72 h is on file for CCN(CC)C(=O)[C@H](Cc1ccc(OCCN(C)C)cc1)NC(=O)c1ccccc1 ?
Response line: > 100 µM

Prompt line: Could you tell me which CC50 at 72 h is on file for O=C(N[C@H](CO)Cc1ccccc1)/C(=C\c1ccc(Br)cc1)NC(=O)c1ccccc1 ?
Response line: 72.7 µM

Prompt line: Could you tell me which CC50 at 72 h is on file for O=C(N[C@@H](Cc1ccccc1)C(=O)N1CCCCC1)c1ccccc1 ?
Response line: > 100 µM

* * *

Test: Selectivity index, ratio of CC50 for human HepG2(2.2.15) cells to IC50 for antiviral activity against HBV infected in human HepG2(2.2.15) cells assessed as inhibition of viral DNA replication
Format: toxicity, cell-based
Settings: read-out: Ratio CC50/IC50
The following compounds are shown together with reported selectivity ratio values.

Example results:
Prompt line: Could you tell me which selectivity ratio is on file for O=C(N[C@H](CO)Cc1ccccc1)/C(NC(=O)c1ccccc1)=C(/Br)c1ccc(Br)cc1 ?
Response line: > 22.5

Prompt line: Could you tell me which selectivity ratio is on file for O=C(N[C@H](CO)Cc1ccccc1)/C(NC(=O)c1ccccc1)=C(/Br)c1ccccc1Br ?
Response line: > 13.8

Prompt line: Could you tell me which selectivity ratio is on file for O=C(N[C@H](CO)Cc1ccccc1)/C(NC(=O)c1ccccc1)=C(/Br)c1ccccc1 ?
Response line: > 25.9

Prompt line: Could you tell me which selectivity ratio is on file for Nc1ccn([C@@H]2CS[C@H](CO)O2)c(=O)n1 ?
Response line: > 1000

Then there is this compound:
Prompt line: Could you tell me which selectivity ratio is on file for Cc1cccc(/C(Br)=C(/NC(=O)c2ccccc2)C(=O)N[C@H](CO)Cc2ccccc2)c1 ?
Response line: > 217

FYI, the data here is from ChEMBL document CHEMBL4145455.
